# DC50 per entry
TESTED TARGET: ER-α in MCF-7 cells (Homo sapiens)
Sequence (P03372 whole entry): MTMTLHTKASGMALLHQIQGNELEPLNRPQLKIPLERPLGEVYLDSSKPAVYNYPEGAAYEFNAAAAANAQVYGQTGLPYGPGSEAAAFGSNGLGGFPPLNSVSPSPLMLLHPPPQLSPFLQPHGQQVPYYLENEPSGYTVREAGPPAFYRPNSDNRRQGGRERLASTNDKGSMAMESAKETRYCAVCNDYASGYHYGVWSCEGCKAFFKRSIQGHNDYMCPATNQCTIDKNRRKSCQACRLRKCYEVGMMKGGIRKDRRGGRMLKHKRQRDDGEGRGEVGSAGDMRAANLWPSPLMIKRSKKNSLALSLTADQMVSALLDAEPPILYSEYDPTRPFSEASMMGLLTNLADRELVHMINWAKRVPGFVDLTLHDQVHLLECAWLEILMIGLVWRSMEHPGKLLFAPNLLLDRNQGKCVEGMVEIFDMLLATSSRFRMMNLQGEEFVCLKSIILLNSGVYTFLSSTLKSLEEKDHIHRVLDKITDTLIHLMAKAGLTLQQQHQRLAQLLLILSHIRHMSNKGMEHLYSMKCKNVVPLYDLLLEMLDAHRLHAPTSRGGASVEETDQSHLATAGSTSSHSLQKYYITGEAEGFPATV
EXPERIMENTAL DETAILS: Breast cancer cell ER-α in cell western assay (SP1)
Type: cell-based
Parameters: endogenous in cells; host or cells: MCF-7
CONDITION PARAMETERS: SP1 antibody, 4 or 24 hr post compound addition, read-out: ER-α In Cell Western Assay (SP1) IC50

Sample `CC/C(=C(/c1ccc(/C=C/C(=O)NC2CCCC2)cc1)c1ccc2[nH]ncc2c1)c1ccccc1` ; DC50 observed: ≤ 100 nM

Sample `CC/C(=C(/c1ccc(/C=C/C(=O)O)cc1)c1ccc2[nH]ncc2n1)c1ccccc1` ; DC50 observed: ≤ 100 nM

Sample `CC/C(=C(/c1ccc(/C=C/C(=O)O)cc1)c1ccc2[nH]ncc2c1F)c1cccc(Oc2ncccn2)c1` ; DC50 observed: ≤ 100 nM

Sample `CC/C(=C(/c1ccc(/C=C/C(=O)O)cc1)c1cnc2[nH]ccc2c1)c1ccccc1` ; DC50 observed: > 100 nM

Sample `CC/C(=C(/c1ccc(/C=C/S(N)(=O)=O)cc1)c1ccc2[nH]ncc2c1)c1ccccc1` ; DC50 observed: ≤ 100 nM

Sample `CC/C(=C(/c1ccc(/C=C/C(=O)NC)cc1)c1ccc2[nH]ncc2c1)c1ccc(F)cc1Cl` ; DC50 observed: ≤ 100 nM

Sample `CC/C(=C(/c1ccc(/C=C/C(=O)O)cc1)c1ccc2[nH]ncc2c1)c1cc2ccccc2s1` ; DC50 observed: ≤ 100 nM

Sample `CC/C(=C(/c1ccc(/C=C/C(=O)O)cc1)c1ccc2[nH]ncc2c1)c1cccc(-c2cscn2)c1` ; DC50 observed: ≤ 100 nM

Sample `CC/C(=C(/c1ccc(/C=C/C(=O)O)cc1)c1ccc2[nH]ncc2c1)c1ccc(Oc2ccccc2)c(C)c1` ; DC50 observed: ≤ 100 nM

Sample `CC/C(=C(/c1ccc(/C=C/C(=O)O)cc1)c1ccc2[nH]ncc2c1)c1cccc(CC(=O)O)c1` ; DC50 observed: > 100 nM

Sample `CC/C(=C(/c1ccc(/C=C/C(=O)O)cc1)c1ccc2[nH]ncc2c1)c1ccc(-c2ccccn2)cc1` ; DC50 observed: ≤ 100 nM

Sample `CC/C(=C(/c1ccc(/C=C/C(=O)O)cc1)c1cccc2[nH]nnc12)c1ccccc1` ; DC50 observed: > 100 nM

Sample `CC/C(=C(/c1ccc(/C=C/C(=O)O)cc1)c1ccc2[nH]ncc2c1)c1ccc(Oc2ccccc2)cc1Cl` ; DC50 observed: ≤ 100 nM

Sample `CCCCCOc1ccc(/C(CC)=C(\c2ccc(/C=C/C(=O)O)cc2)c2ccc3[nH]ncc3c2)cc1` ; DC50 observed: ≤ 100 nM

Sample `CC/C(=C(/c1ccc(/C=C/C(=O)O)cc1)c1ccc2[nH]ncc2c1)c1cccnc1C(F)(F)F` ; DC50 observed: ≤ 100 nM
